Values from patent US20240301062A1

- assay system: T1, human claudin 6 (CLDN6) (human, UniProt P56747 1-220)
- T1 construct: also called human CLDN6; hCLDN6
- T1 sequence: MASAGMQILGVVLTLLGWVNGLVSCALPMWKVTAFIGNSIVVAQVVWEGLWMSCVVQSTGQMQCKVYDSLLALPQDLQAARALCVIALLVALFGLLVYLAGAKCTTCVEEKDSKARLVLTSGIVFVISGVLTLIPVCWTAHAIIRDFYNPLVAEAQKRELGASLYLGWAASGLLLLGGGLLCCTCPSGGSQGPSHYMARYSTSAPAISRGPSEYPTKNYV
- experiment summary: FACS, HEK293T/human CLDN6 cells

binder	u	Top MFI Mean
BG87P-m8 (antibody, V domains shown, Variant of BG87P-Bz0 with H33A; constant regions not restated (parent: human IgG1/kappa)) VH: QIQLVQSGAEVKKPGASVKVSCKASGYSFTDYAINWVRQAPGQRLEWMGWIYPGSGYTKYNEKFKVRVTLTVDTSASTAYMELSSLRSEDTAVYFCARSGIYHYVSSYYFDHWGKGTTVTVSS VL: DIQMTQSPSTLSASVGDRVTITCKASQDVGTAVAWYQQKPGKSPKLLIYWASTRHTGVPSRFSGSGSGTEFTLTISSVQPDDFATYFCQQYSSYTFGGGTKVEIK	MFI	54000
BG87P-Bz6 (antibody, V domains shown) VH: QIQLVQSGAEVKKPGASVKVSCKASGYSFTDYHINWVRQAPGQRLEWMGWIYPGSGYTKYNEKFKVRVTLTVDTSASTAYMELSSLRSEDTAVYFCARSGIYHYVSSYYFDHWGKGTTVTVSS VL: DIQMTQSPSTLSASVGDRVTITCKASQDVGTAVAWYQQKPGKAPKLLIYWASTRHTGVPSRFSGSGSGTEFTLTISSVQPDDFATYFCQQYSSYTFGGGTKVEIK	MFI	144000
